# System: S. warneri ATCC 27836
# run-description: Broth microdilution MIC, ATCC strains
# Type: cell-based
# condition-summary: Staphylococcus warneri, ATCC27836; S. warneri ATCC 27836; read-out: MIC (growth inhibition, microdilution method)
Each entry below lists one item and its recorded MIC value.

Use these answered entries as a reference point.
compound-string | recorded-measurement
Cn1nnc(-c2cc(C(=O)O)sc2C(=O)O)n1 | 64 µg/mL
O=C(O)c1sc(-c2ccc(F)cc2)cc1-c1nnn[nH]1 | > 16 µg/mL
Cn1nnc(-c2cc(-c3ccc(F)cc3)sc2-c2ccc(F)cc2)n1 | > 16 µg/mL

Give MIC for the following compound: Cn1nnnc1-c1cc(-c2ccc(F)cc2)sc1C(=O)O
> 8 µg/mL

Identify measured MIC corresponding to Cn1nnnc1-c1cc(-c2ccc(F)cc2)sc1-c1ccc(F)cc1
> 16 µg/mL

Identify MIC associated with the compound Cn1nnc(-c2cc(C(=O)O)sc2-c2ccc(F)cc2)n1
> 8 µg/mL

Given the compound CCOC(=O)c1cc(-c2nnn(C)n2)c(-c2ccc(F)cc2)s1 , write its reported MIC.
> 16 µg/mL

Please look at this compound and report its MIC: O=C(O)c1cc(-c2nn[nH]n2)cs1
32 µg/mL

Recall and state the measured MIC for Cn1nnnc1-c1cc(C(=O)O)sc1C(=O)O .
16 µg/mL

Give the reported value of MIC for this record: Fc1ccc(-c2cc(-c3nnn[nH]3)c(-c3ccc(F)cc3)s2)cc1
> 32 µg/mL

Name the recorded MIC of the compound listed here: COC(=O)c1cc(-c2nnnn2C)c(C(=O)OC)s1
> 16 µg/mL

State, in one line, measured MIC of COC(=O)c1sc(-c2ccc(F)cc2)cc1-c1nnnn1C
> 4 µg/mL

Specify reported MIC for the compound shown: COC(=O)c1sc(-c2ccc(F)cc2)cc1-c1nnn(C)n1
> 8 µg/mL

Quick one: give measured MIC for Cn1nnc(-c2cc(-c3ccc(F)cc3)sc2C(=O)O)n1
> 16 µg/mL

Specify MIC for O=C(O)c1cc(-c2nnn[nH]2)c(-c2ccc(F)cc2)s1 and stop.
64 µg/mL

Tell us which MIC value is on record for O=C(O)c1cc(-c2nnn[nH]2)c(C(=O)O)s1
256 µg/mL

Tell me measured MIC for CCOC(=O)c1cc(-c2nnn[nH]2)c(-c2ccc(F)cc2)s1 please.
> 64 µg/mL

* * *

# Tested on: S. maltophilia clinical isolates
# run-description: Broth microdilution MIC, clinical isolate strains (NAUTICA)
# Assay type: cell-based
# condition-summary: clinical isolates, one table line per isolate; unit assumed
value-kind: MIC, S. MALTOPHILIA (µg/mL)
Respond numerically; units are µg/mL and should not be typed.

Illustrative cases are given below, each with its answer.
molecule | study-target | readout-unit | recorded-measurement
O=C(O)c1cc(-c2nn[nH]n2)cs1 [DNM-116] | S. maltophilia clinical isolates | µg/mL | 16
COC(=O)c1cc(-c2nnnn2C)c(C(=O)OC)s1 [DNM-115] | S. maltophilia clinical isolates | µg/mL | 8

Name the recorded MIC, S. MALTOPHILIA of the item O=C(O)c1cc(-c2nnn[nH]2)c(-c2ccc(F)cc2)s1 [DNM-121] in your answer.
64

Identify the reported MIC, S. MALTOPHILIA for the following entry. Cn1nnnc1-c1cc(C(=O)O)sc1C(=O)O [DNM-113]
8

* * *

We begin with a simple list: items and their reported MIC.
# Tested on: K. oxytoca ATCC 49131
# run-description: Broth microdilution MIC, ATCC strains
# Assay type: cell-based
# condition-summary: Klebsiella oxytoca, ATCC49131; K. oxytoca ATCC 49131; read-out: MIC (growth inhibition, microdilution method)

Worked examples follow.
molecule | value-kind | recorded-measurement
Cn1nnnc1-c1cc(-c2ccc(F)cc2)sc1C(=O)O [DNM-143] | MIC | > 8 µg/mL
Cn1nnc(-c2cc(-c3ccc(F)cc3)sc2-c2ccc(F)cc2)n1 [DNM-132] | MIC | > 16 µg/mL
CCOC(=O)c1cc(-c2nnn(C)n2)c(-c2ccc(F)cc2)s1 [DNM-125] | MIC | > 16 µg/mL
CCOC(=O)c1cc(-c2nnn[nH]2)c(-c2ccc(F)cc2)s1 [DNM-124] | MIC | > 64 µg/mL

Let's switch to this molecule now.
Tell me its MIC given Cn1nnc(-c2cc(-c3ccc(F)cc3)sc2C(=O)O)n1 [DNM-142] as the entry.
> 16 µg/mL

* * *

Reported MIC values follow for various compounds
# Tested on: S. saprophyticus ATCC 15305
# run-description: Broth microdilution MIC, ATCC strains
# Type: cell-based
# condition-summary: Staphylococcus saprophyticus, ATCC15305; S. saprophyticus ATCC 15305; read-out: MIC (growth inhibition, microdilution method)

Example entries and their recorded answers appear below.
compound-string | MIC
Fc1ccc(-c2cc(-c3nnn[nH]3)c(-c3ccc(F)cc3)s2)cc1 | > 32 µg/mL
Cn1nnc(-c2cc(-c3ccc(F)cc3)sc2-c2ccc(F)cc2)n1 | > 16 µg/mL
Cn1nnnc1-c1cc(C(=O)O)sc1C(=O)O | 8 µg/mL
CCOC(=O)c1cc(-c2nnn(C)n2)c(-c2ccc(F)cc2)s1 | > 16 µg/mL
O=C(O)c1sc(-c2ccc(F)cc2)cc1-c1nnn[nH]1 | > 16 µg/mL
Cn1nnc(-c2cc(-c3ccc(F)cc3)sc2C(=O)O)n1 | > 16 µg/mL

Kindly indicate its recorded MIC. Item: CCOC(=O)c1cc(-c2nnn[nH]2)c(-c2ccc(F)cc2)s1
> 64 µg/mL

Output measured MIC for this item: Cn1nnnc1-c1cc(-c2ccc(F)cc2)sc1C(=O)O
> 8 µg/mL

Read off the recorded MIC for Cn1nnnc1-c1cc(-c2ccc(F)cc2)sc1-c1ccc(F)cc1
> 16 µg/mL

Assign MIC to the following record: Cn1nnc(-c2cc(C(=O)O)sc2C(=O)O)n1
64 µg/mL

Supply MIC value. Item: O=C(O)c1cc(-c2nnn[nH]2)c(-c2ccc(F)cc2)s1
64 µg/mL

Quick one: give measured MIC for O=C(O)c1cc(-c2nn[nH]n2)cs1
16 µg/mL

Write down MIC measured for item COC(=O)c1sc(-c2ccc(F)cc2)cc1-c1nnnn1C
> 4 µg/mL

Supply recorded MIC for COC(=O)c1sc(-c2ccc(F)cc2)cc1-c1nnn(C)n1 here.
> 8 µg/mL

Supply measured MIC of Cn1nnc(-c2cc(C(=O)O)sc2-c2ccc(F)cc2)n1 in your reply.
> 8 µg/mL

Please look at this compound and report its MIC: COC(=O)c1cc(-c2nnnn2C)c(C(=O)OC)s1
8 µg/mL

* * *

# Test system: B. cepacia ATCC 25416
# run-description: Broth microdilution MIC, ATCC strains
# Assay type: cell-based
# condition-summary: Burkholderia cepacia, ATCC25416; B. cepacia ATCC 25416; read-out: MIC (growth inhibition, microdilution method)
value-kind: MIC (µg/mL)
Supply the numeric figure in µg/mL, leaving out any unit text.

Some compounds with recorded MIC:
compound-string | readout-unit | recorded-measurement
CCOC(=O)c1cc(-c2nnn[nH]2)c(-c2ccc(F)cc2)s1 | µg/mL | 64
O=C(O)c1cc(-c2nnn[nH]2)c(-c2ccc(F)cc2)s1 | µg/mL | 64

Then this compound:
State its MIC: O=C(O)c1cc(-c2nn[nH]n2)cs1
16

* * *

# Tested on: P. stuartii clinical isolates
# run-description: Broth microdilution MIC, clinical isolate strains (NAUTICA)
# Type: cell-based
# condition-summary: Table 4B; each table row is one clinical isolate; unit assumed
MIC, P. STUARTII by entry:

// below: answered compounds
compound-string | MIC, P. STUARTII
CCOC(=O)c1cc(-c2nnn(C)n2)c(-c2ccc(F)cc2)s1 | > 16 µg/mL
Cn1nnc(-c2cc(-c3ccc(F)cc3)sc2-c2ccc(F)cc2)n1 | > 16 µg/mL
O=C(O)c1sc(-c2ccc(F)cc2)cc1-c1nnn[nH]1 | > 16 µg/mL
Cn1nnnc1-c1cc(-c2ccc(F)cc2)sc1C(=O)O | > 8 µg/mL
Cn1nnc(-c2cc(-c3ccc(F)cc3)sc2C(=O)O)n1 | > 16 µg/mL

Determine reported MIC, P. STUARTII for COC(=O)c1sc(-c2ccc(F)cc2)cc1-c1nnnn1C ; test system: P. stuartii clinical isolates.
> 4 µg/mL

Write down measured MIC, P. STUARTII (P. stuartii clinical isolates) for this compound. COC(=O)c1sc(-c2ccc(F)cc2)cc1-c1nnn(C)n1
> 8 µg/mL

Give P. stuartii clinical isolates MIC, P. STUARTII for the following compound: Fc1ccc(-c2cc(-c3nnn[nH]3)c(-c3ccc(F)cc3)s2)cc1
> 32 µg/mL

Provide MIC, P. STUARTII, recorded with P. stuartii clinical isolates, of Cn1nnnc1-c1cc(-c2ccc(F)cc2)sc1-c1ccc(F)cc1
> 16 µg/mL

Sourced from patent US8835476B2
